The following molecules are listed with their measured GI50 values.
tested on: DLD-1; assay: NCI tumour cell line growth inhibition, 48 h
Active and inactive are the calls of the source. Cut-off read from the data, not from the text of the source: active = GI50 up to about 1.1 µM and inactive = higher.

Cc1nc2c(n1-c1ccc(Br)cc1)C(=O)c1ccccc1C2=O ... 7.59 µM (inactive)
CCCC/C=C/C1Cc2ccccc2CN1S(=O)(=O)c1ccc(C)cc1 (configuration not stated) ... 7.71 µM (inactive)
COc1ccc2c(c1OCC(=O)O)C(=O)C(CCC(=O)O)CC2 (configuration not stated) ... > 100 µM (inactive)

Form: molecule = O=C1C=CC(=O)C2=C1[C@@H](O)C1CC=CC3C(=O)O[C@@H]2C31 (some centres not stated) ; GI50 = 18.2 µM (inactive)

The molecule identified as `O=c1c2c(nc3n1CCC3)sc1c(O)c(Br)ccc12` registered its GI50 at 27.7 µM (inactive)

Value of measured GI50 for the entry `C/C(CC(=O)Nc1ccc(Cl)cc1)=N\NC(N)=S` : 18.3 µM (inactive)

Briefly, GI50 measured for `O=[N+]([O-])c1cc(I)cc(/C=N/NS(=O)(=O)c2ccc(Cl)cc2)c1O` : 26 µM (inactive)

---

test system: ACHN; test: NCI tumour cell line growth inhibition, 48 h
Activity calls are given as the source filed them. No stated cut-off is given here; in the data, active = GI50 up to about 1.1 µM and inactive = higher.
# GI50 annotations

Cc1c(C(=O)/C=C/c2ccc([N+](=O)[O-])cc2)[n+]([O-])c2ccccc2[n+]1[O-] ... > 100 µM (inactive)

GET /value?item= COc1ccc(N)c(C(O)CCNC(C)=O)c1 (centres undefined) &field=GI50 returns > 100 µM (inactive)

Per the records, this compound ( `CCc1c(-c2ccccc2)[nH]c2ccccc2c1=O` ) has GI50 equal to 36.7 µM (inactive)

GI50 in this record for `CCOC(C[C@H](O[Si](C)(C)C(C)(C)C)[C@H]1COC(=S)S1)OCC` : 48.5 µM (inactive)

---

system: RPMI-8226; assay: NCI tumour cell line growth inhibition, 48 h
Calls of active or inactive are those of the source. Rule as the data show it: active = GI50 up to about 1.1 µM and inactive = higher.
Output constraint: value belongs to active, inactive

Nc1nc(Cl)c(/N=N/c2ccc(Cl)cc2)c(NCC2(CO)CCC(CCc3ccccc3)C2)n1 (centres undefined) ... inactive
CCOC(=O)c1cc(C)n(CN(CCO)Cn2nc(C(=O)OCC)cc2C)n1 ... inactive
O[C@H]1[C@H](O)[C@@H](Cn2nnc(-c3ccccc3)c2-c2ccccc2)OCO[C@@H]1Cn1nnc(-c2ccccc2)c1-c1ccccc1 ... inactive
CCCn1cc2c3c(cccc31)C1C=C(C)CN(C)C1C2 (centres undefined) ... inactive
NCC1(N2CCOCC2)C2CCCC21CO (centres undefined) ... inactive

Please indicate how the test categorized `COc1cc(C(C)(C)C)c(OC(=O)/C=C/C(=O)O/C=C/[N+](=O)[O-])c(C(C)(C)C)c1` .
inactive

For `COc1ccc(-c2nc3ncccn3c2-c2ccc(S(C)(=O)=O)cc2)cc1` , what call appears in the results of this test?
inactive

I would be grateful if you could indicate the recorded call for CCOc1ccccc1/N=N/C1C(=O)N(C(=O)CC(=O)Nc2ccccc2C)N=C1C (centres undefined) .
inactive

Outcome? `c1ccc(C[n+]2cccc(-c3cc4ccccc4[nH]3)c2)cc1`
inactive

Tell me the assay call for `Cc1c(N(Cc2ccccc2)Cc2ccccc2)nc(S(C)(=O)=O)nc1S(C)(=O)=O` please.
inactive

What did the test return for CC1(C)OCC(C2CCC3(C)C4=CCC5C(C)(C)C(O)CCC5(C)C4CCC23C)CC(O)C1O (centres undefined) ?
inactive

Dear all, I need the recorded test outcome for `Nc1nnc(CCC(=O)Nc2cc(Cl)ccc2Cl)n1N` , thank you.
inactive

---

tested on: TK-10; assay: NCI tumour cell line growth inhibition, 48 h
Calls of active or inactive are those of the source. Rule as the data show it: active = GI50 up to about 1.1 µM and inactive = higher.
PROPERTY LABEL: GI50

Answered cases to consult:
COc1ccc(-n2cnc3c2=NC(C)(C)NC=3C(N)=O)c(OC)c1 ... > 100 µM (inactive)
OCc1cn(C(c2ccccc2)(c2ccccc2)c2ccccc2)cn1 ... > 100 µM (inactive)
NC1CCN(c2nc3ccccc3c3c2CCCC3)CC1 ... 10.7 µM (inactive)

Short answer for `NC(=S)N/N=C\CC(O)(C(F)(F)F)C(F)(F)F` : GI50 was > 10 µM (inactive)

Summary for this molecule, `COc1cc(/C=C/c2ccc(O)c(OC)c2)cc(OC)c1` : GI50 is 20.2 µM (inactive)

The value of GI50 measured for the molecule `CN(CCC(=O)O)S(=O)(=O)c1ccccc1` turned out to be > 100 µM (inactive)

// GI50 value for `Cc1cc2oc3c(ccc(=O)n3C)c(=O)c2c(C)c1Cl` : > 100 µM (inactive)

GI50 reading for `COc1cc(CCC(=O)O)c2cc3ccccc3cc2c1O` : 33.3 µM (inactive)

Data point: CC(CCC(=O)O)c1ccc(Br)cc1 (stereo not given) ; GI50 = > 100 µM (inactive)

Per the records, this molecule ( `CCCCN1CSC(=S)N(Cc2ccccc2)C1` ) has GI50 equal to 28.4 µM (inactive)

---

tested on: LOX IMVI; test: NCI tumour cell line growth inhibition, 48 h
The source made the active and inactive calls. Cut-off read from the data, not from the text of the source: active = GI50 up to about 1.1 µM and inactive = higher.
PROPERTY LABEL: GI50

CCN(CC)CC1CCCCN1CC(=O)N1c2ccc(Br)cc2C(=O)Nc2cccnc21 (stereo not drawn) ... > 100 µM (inactive)
CC(=O)NC1C(OCc2ccccc2)OC(CO)C(O)C1OCC(=O)N[C@@H](C)C(=O)N[C@H](CCC(=O)NCCCNc1ccc([N+](=O)[O-])c2[nH]c3ccccc3c(=O)c12)C(N)=O (stereo partly drawn) ... 52.6 µM (inactive)
CC(=O)Oc1cc2c(n(C)c1=O)CCC2 ... 96.4 µM (inactive)
Cc1c(C(=O)/C=C/c2ccc([N+](=O)[O-])cc2)[n+]([O-])c2ccccc2[n+]1[O-] ... 42.3 µM (inactive)
NC(=S)N/N=C\CC(O)(C(F)(F)F)C(F)(F)F ... > 10 µM (inactive)
Cc1c2cc[n+](C)cc2c(C)c2c1[nH]c1ccc(Oc3ccccc3)cc12 ... 1.61 µM (inactive)
CCCCN1CSC(=S)N(Cc2ccccc2)C1 ... 36.9 µM (inactive)

Lab note: `Cc1ccc2nc(NC(=O)/C(=N\NC(=S)NN)C3C(=O)NC(=S)NC3=O)sc2c1` gave GI50 of > 100 µM (inactive)

---

test system: CCRF-CEM; assay: NCI tumour cell line growth inhibition, 48 h
The source made the active and inactive calls. Rule as the data show it: active = GI50 up to about 1.1 µM and inactive = higher.
Give one outcome, nothing more. List: Y = active, N = inactive

Worked cases, answers included:
O=C(O)C12C3C4C1C1C2C3C1(Br)C41OCCO1 (stereo unspecified) ... N
N=C(N)Nc1ccc(CC(N)C(=O)NCC(=O)C(CC(=O)O)c2ncc(NC(=O)C(F)(F)F)o2)cc1 (stereo unspecified) ... N
NC1=Nc2ccccc2Sc2nc3ccccc3n21 ... N
O=C1N[C@@H]2CCC[C@@H]2[C@@H]1c1ccc(Cl)cc1 ... N
O=C1C(c2ccc([N+](=O)[O-])cc2)=[N+]([O-])c2ccc([N+](=O)[O-])cc21 ... N

Please state the recorded outcome for this molecule: `COc1cc(OC)c2nc(C)c3c(c2c1)NCC3`
N

Test call, this molecule: CCOC1CC(=O)c2c(Br)sc(Br)c21 (stereo unspecified)
N

Each molecule tested received a call. Report the one for O=C1NC(c2ccc3ccccc3c2)Nc2ccccc21 (stereo unspecified) .
N

// outcome(item) with item = `CCOC(=O)c1c(-c2ccccc2)nc2c(OC)nccn12`
N

Recorded test call requested for CC(=O)OCC1OC(OCCCOP(=S)(OCCC#N)OCC2OC(n3ccc(N)nc3=O)C(OC(=O)c3ccccc3)C2OC(=O)c2ccccc2)C(OC(C)=O)C(OC(C)=O)C1OC(C)=O (stereo unspecified)
N

---

system: BT-549; assay: NCI tumour cell line growth inhibition, 48 h
Activity calls are given as the source filed them. Cut-off read from the data, not from the text of the source: active = GI50 up to about 1.1 µM and inactive = higher.
One label from this list, please: 1 = active, 0 = inactive

Here's what some known entries look like.
COc1cc2nc(-c3cccs3)nc(N3C(c4ccc(O)cc4)=NNC(=O)c4ccccc43)c2cc1OC ... 0
Brc1cccc(Nc2ncnc3sc4c(c23)CCC(Nc2cccc(Br)c2)C4)c1 (stereo not drawn) ... 0
Nc1ccnc2c1ncn2[C@H]1C[C@H](O)[C@@H](CO)O1 ... 0
CC(C#N)N(CCc1ccccc1)C(=O)c1ccccc1 (stereo not drawn) ... 0
Cc1ccc(S(=O)(=O)n2cncc2CO)cc1 ... 0
CCOP(=O)(OCC)C1=C(c2ccccc2)OC(N)=C(C#N)C1c1ccc(Cl)cc1 (stereo not drawn) ... 0
C1=C\SS/C=C\SS/C=C\SS/C=C\SS/1 ... 0
C=C1c2nc3ccccc3n2C=C(c2ccccc2)N1c1ccc([N+](=O)[O-])cc1 ... 0

Please share the test call associated with `COc1ccc2oc(=O)c(-c3nc4ccccc4s3)cc2c1` .
0

Answer briefly: the call reported for CCC(C)C1NC(=O)C(NC(=O)C(CC(C)C)N(C)C(=O)[C@@H]2C=CCN2C(=O)[C@H](C)O)C(C)OC(=O)[C@H](Cc2ccc(OC)cc2)N(C)C(=O)[C@@H]2CCCN2C(=O)[C@H](CC(C)C)NC(=O)C(C)C(=O)[C@H](C(C)C)OC(=O)CC1O (stereo partly drawn) in this assay.
1

Please state the recorded outcome for this molecule: `Nc1c(C(=O)O)nnc2ccc(Cl)cc12`
0
